# assay-method-text: Stability of QC samples in rat brain homogenate (freeze-thaw, room temperature)
# Assay type: physicochemical
# applied-conditions: rat brain QC 80 ng/mL, room temperature 24 h, percentage remaining, n = 5
observable: Stability room temperature (%)
Numbers only, in %.

compound: COc1ccc2ccc(=O)oc2c1CC=C(C)C
reading-unit: %
Stability room temperature: 101.64

Please go through the list and note Stability room temperature for each compound.
1. C/C=C(/C)C(=O)OC(C)(C)[C@@H]1Cc2c(ccc3ccc(=O)oc23)O1
2. CC(C)=CCOc1c2ccoc2cc2oc(=O)ccc12
3. CC=C(C)C(=O)OC(C(O)c1cc2ccc(=O)oc2cc1OC)C(C)(C)O (stereo not shown)

[92.73, 88.65, 97.77]

* * *

Would you mind telling me the reported half-life of each entry?
# assay-method-text: Rat brain distribution after oral administration of APRE (UPLC-MS/MS)
# applied-conditions: rat, brain, po, 4 g/kg
Answers are plain numbers, in h.

molecule: COc1ccc2ccc(=O)oc2c1CC=C(C)C
reading-unit: h
half-life: 5.36
//
molecule: CC(C)(O)[C@H](O)COc1c2ccoc2cc2oc(=O)ccc12 [Compound 8, oxypeucedanin hydrate]
reading-unit: h
half-life: 4.91
//
molecule: CC(C)(O)[C@@H]1Cc2c(ccc3ccc(=O)oc23)O1
reading-unit: h
half-life: 3.92

Shift focus to the following entry.
Please give the measured half-life for this molecule: CC=C(C)C(=O)OC(C(O)c1cc2ccc(=O)oc2cc1OC)C(C)(C)O (stereo not shown) 2.77

* * *

Answer each item with its documented Stability Freeze-thaw.
# assay-method-text: Stability of QC samples in aCSF (freeze-thaw, room temperature)
# Format: physicochemical
# applied-conditions: aCSF QC 40 ng/mL, three freeze-thaw cycles, percentage remaining, n = 5
Give bare numbers, in %.

Sample answers from the record:
compound: O=c1ccc2cc3ccoc3cc2o1 [Compound 1, psoralen]
observable: Stability Freeze-thaw
reading-unit: %
experimental-value: 96.98
//
compound: CC(C)(O)[C@H](O)COc1c2ccoc2cc2oc(=O)ccc12 [Compound 8, oxypeucedanin hydrate]
observable: Stability Freeze-thaw
reading-unit: %
experimental-value: 94.73

I have 3 compounds here; please give me Stability Freeze-thaw for each one.
1. CC=C(C)C(=O)OC(C(O)c1cc2ccc(=O)oc2cc1OC)C(C)(C)O (centres unmarked) [Compound 9, angelol B]
2. COc1c2ccoc2cc2oc(=O)ccc12 [Compound 3, bergapten]
3. COc1ccc2ccc(=O)oc2c1CC=C(C)C [Compound 10, osthole]

1. 95.36
2. 93.24
3. 95.90

* * *

For each entry below, report its half-life value.
# assay-method-text: Rat brain distribution after oral administration of APRE (UPLC-MS/MS)
# applied-conditions: rat, brain, po, 4 g/kg
One number for each entry, in h.

// solved cases for half-life follow
compound: CC(C)(O)[C@H]1Cc2cc3ccc(=O)oc3cc2O1
observable: half-life
reading-unit: h
experimental-value: 6.27
//
compound: O=c1ccc2cc3ccoc3cc2o1
observable: half-life
reading-unit: h
experimental-value: 2.15
//
compound: COc1c2ccoc2cc2oc(=O)ccc12
observable: half-life
reading-unit: h
experimental-value: 2.34
//
compound: CC(C)=CCOc1c2ccoc2cc2oc(=O)ccc12
observable: half-life
reading-unit: h
experimental-value: 3.54

Next compound, half-life to be filled in.
# half-life lookup, item COc1ccc2ccc(=O)oc2c1CC(O)C(C)(C)O (centres unmarked) [Compound 11, Meranzin hydrate] 3.64

* * *

# assay-method-text: Rat brain distribution after oral administration of APRE (UPLC-MS/MS)
# applied-conditions: rat brain, oral APRE 4 g/kg, mean ± SD, n = 6
Dear colleague, classification is by CLz/F, with ranges listed here: lower level: < 0.9 g/h/kg; middle level: ≥ 0.9 g/h/kg and < 10 g/h/kg; upper level: ≥ 10 g/h/kg

Solved cases (4 shown):
compound: O=c1ccc2cc3ccoc3cc2o1 [Compound 1, psoralen]
label-value: middle level
//
compound: COc1c2ccoc2cc2oc(=O)ccc12 [Compound 3, bergapten]
label-value: middle level
//
compound: COc1ccc2ccc(=O)oc2c1CC=C(C)C [Compound 10, osthole]
label-value: upper level
//
compound: CC(C)(O)[C@@H]1Cc2c(ccc3ccc(=O)oc23)O1 [Compound 5, columbianetin]
label-value: lower level

Dear colleague, I would appreciate it if you could identify the bin for CC=C(C)C(=O)OC(C(O)c1cc2ccc(=O)oc2cc1OC)C(C)(C)O (stereo not drawn) [Compound 9, angelol B] and reply at your convenience. upper level

Cool, now COc1ccc2ccc(=O)oc2c1CC(O)C(C)(C)O (stereo not drawn) [Compound 11, Meranzin hydrate] lower level

Next up: CC(C)(O)[C@H](O)COc1c2ccoc2cc2oc(=O)ccc12 [Compound 8, oxypeucedanin hydrate] middle level

Same thing, different compound: CC(C)(O)[C@H]1Cc2cc3ccc(=O)oc3cc2O1 [Compound 12, nodakenetin] lower level

Then this compound: CC(C)=CCOc1c2ccoc2cc2oc(=O)ccc12 [Compound 4, isoimperatorin] upper level

* * *

What Stability room temperature was measured for each of the following?
# assay-method-text: Stability of QC samples in rat brain homogenate (freeze-thaw, room temperature)
# Format: physicochemical
# applied-conditions: rat brain QC 5 ng/mL, room temperature 24 h, percentage remaining, n = 5
One number for each entry, in %.

compound: COc1ccc2ccc(=O)oc2c1CC(O)C(C)(C)O (centres unmarked) [Compound 11, Meranzin hydrate]
reading-unit: %
experimental-value: 97.21
//
compound: CC=C(C)C(=O)OC(C(O)c1cc2ccc(=O)oc2cc1OC)C(C)(C)O (centres unmarked) [Compound 9, angelol B]
reading-unit: %
experimental-value: 96.24
//
compound: CC(C)(O)[C@@H]1Cc2c(ccc3ccc(=O)oc23)O1 [Compound 5, columbianetin]
reading-unit: %
experimental-value: 97.88
//
compound: CC(C)(O)[C@H]1Cc2cc3ccc(=O)oc3cc2O1 [Compound 12, nodakenetin]
reading-unit: %
experimental-value: 94.83
//
compound: CC(C)=CCOc1c2ccoc2cc2oc(=O)ccc12 [Compound 4, isoimperatorin]
reading-unit: %
experimental-value: 91.59
//
compound: COc1c2ccoc2cc2oc(=O)ccc12 [Compound 3, bergapten]
reading-unit: %
experimental-value: 88.02

Respectfully, I request Stability room temperature for each entry included below.
1. COc1ccc2ccc(=O)oc2c1CC=C(C)C [Compound 10, osthole]
2. CC(C)(O)[C@H](O)COc1c2ccoc2cc2oc(=O)ccc12 [Compound 8, oxypeucedanin hydrate]

99.12
97.72

* * *

What Stability Freeze-thaw was measured for each of the following?
# assay-method-text: Stability of QC samples in aCSF (freeze-thaw, room temperature)
# Type: physicochemical
# applied-conditions: aCSF QC 80 ng/mL, three freeze-thaw cycles, percentage remaining, n = 5
Give bare numbers, in %.

// known answers, use as guide
molecule: COc1c2ccoc2cc2oc(=O)ccc12
observable: Stability Freeze-thaw
experimental-value: 97.23
--
molecule: CC=C(C)C(=O)OC(C(O)c1cc2ccc(=O)oc2cc1OC)C(C)(C)O (centres unmarked)
observable: Stability Freeze-thaw
experimental-value: 96.89
--
molecule: CC(C)(O)[C@H](O)COc1c2ccoc2cc2oc(=O)ccc12 [Compound 8, oxypeucedanin hydrate]
observable: Stability Freeze-thaw
experimental-value: 95.96
--
molecule: COc1ccc2ccc(=O)oc2c1CC=C(C)C
observable: Stability Freeze-thaw
experimental-value: 97.71

Kindly consider the entry below.
Quick check: Stability Freeze-thaw of O=c1ccc2cc3ccoc3cc2o1 ? 86.27

* * *

# assay-method-text: Stability of QC samples in aCSF (freeze-thaw, room temperature)
# Type: physicochemical
# applied-conditions: aCSF QC 5 ng/mL, room temperature 24 h, percentage remaining, n = 5
I'd be grateful if you could share measured Stability room temperature for these entries.
Numbers only, in %.

compound: COc1ccc2ccc(=O)oc2c1CC=C(C)C [Compound 10, osthole]
observable: Stability room temperature
reading-unit: %
experimental-value: 95.92
//
compound: CC(C)(O)[C@@H]1Cc2c(ccc3ccc(=O)oc23)O1 [Compound 5, columbianetin]
observable: Stability room temperature
reading-unit: %
experimental-value: 97.23
//
compound: CC(C)(O)[C@H]1Cc2cc3ccc(=O)oc3cc2O1 [Compound 12, nodakenetin]
observable: Stability room temperature
reading-unit: %
experimental-value: 102.33
//
compound: CC(C)(O)[C@H](O)COc1c2ccoc2cc2oc(=O)ccc12 [Compound 8, oxypeucedanin hydrate]
observable: Stability room temperature
reading-unit: %
experimental-value: 96.96
//
compound: COc1ccc2ccc(=O)oc2c1CC(O)C(C)(C)O (stereo not shown) [Compound 11, Meranzin hydrate]
observable: Stability room temperature
reading-unit: %
experimental-value: 92.02

Hi, could you look up Stability room temperature for each item in my list?
1. CC=C(C)C(=O)OC(C(O)c1cc2ccc(=O)oc2cc1OC)C(C)(C)O (stereo not shown) [Compound 9, angelol B]
2. COc1c2ccoc2cc2oc(=O)ccc12 [Compound 3, bergapten]

97.45
106.76

// data source = paper PMC6017000
